Tested on: Staphylococcus sp.
Experiment: in vitro antibacterial evaluation, MIC by broth dilution
Assay type: cell-based
Conditions: broth dilution, 18 hours at 35° C.
Excerpt: Methods for in vitro Antibacterial Evaluation (Table 1) […]

{"compound": "CC(C)CC(=O)OCC1OC(OC2C(CO)OC(Oc3ccc(CC4NC(=O)C(Cc5ccccc5)NC(=O)CNC(=O)C(CO)NC(=O)C(C(O)C5CNC(=N)N5C5OC(CO)C(O)C(O)C5O)NC(=O)C(C(O)C5CNC(=N)N5)NC4=O)cc3)C(O)C2O)C(O)C(O)C1O (stereo not shown) [Example 283c]", "system": "Staphylococcus sp.", "MIC Staphylococcus aureus (GC 4544) [µg/mL]": 32}
{"compound": "CC(c1ccccc1)C1NC(=O)CNC(=O)C(CO)NC(=O)C(C(O)C2CNC(=N)N2C2OC(CO)C(O)C(O)C2O)NC(=O)C(C(O)C2CNC(=N)N2)NC(=O)C(Cc2ccc(OC3OC(CO)C(OC4OC5COC(c6cccc(O)c6)OC5C(O)C4O)C(O)C3O)cc2)NC1=O (stereo not shown) [Example 136]", "system": "Staphylococcus sp.", "MIC Staphylococcus aureus (GC 4544) [µg/mL]": 16}
{"compound": "COc1ccc(CC2OCC3OC(OC4C(CO)OC(Oc5ccc(CC6NC(=O)C(C(C)c7ccccc7)NC(=O)CNC(=O)C(CO)NC(=O)C(C(O)C7CNC(=N)N7C7OC(CO)C(O)C(O)C7O)NC(=O)C(C(O)C7CNC(=N)N7)NC6=O)cc5)C(O)C4O)C(O)C(O)C3O2)cc1 (stereo not shown) [Example 103]", "system": "Staphylococcus sp.", "MIC Staphylococcus aureus (GC 4544) [µg/mL]": 2}
{"compound": "COc1ccc(COCC2OC(OC3C(CO)OC(Oc4ccc(CC5NC(=O)C(C(C)c6ccccc6)NC(=O)CNC(=O)C(CO)NC(=O)C(C(O)C6CNC(=N)N6C6OC(CO)C(O)C(O)C6O)NC(=O)C(C(O)C6CNC(=N)N6)NC5=O)cc4)C(O)C3O)C(O)C(O)C2O)cc1 (stereo not shown) [Example 232]", "system": "Staphylococcus sp.", "MIC Staphylococcus aureus (GC 4544) [µg/mL]": 4}
{"compound": "CC(c1ccccc1)C1NC(=O)CNC(=O)C(CO)NC(=O)C(CC2CNC(=N)N2C2OC(CO)C(O)C(O)C2O)NC(=O)C(CC2CNC(=N)N2)NC(=O)C(Cc2ccc(OC3OC(CO)C(OC4OC(CO)C(OCc5ccc(OCc6ccccc6)cc5)C(O)C4O)C(O)C3O)cc2)NC1=O (stereo not shown) [Example 246a]", "system": "Staphylococcus sp.", "MIC Staphylococcus aureus (GC 4544) [µg/mL]": 2}
